Details: in toluene, 308.15 K
READOUT: solubility (mole fraction)

{"SMILES ENTRY": "O=P(NCc1ccccc1)(Oc1ccccc1)Oc1ccccc1", "READOUT": "solubility (mole fraction)", "READOUT NUMBER": 0.0312}

###

Details: in methyl acetate, 303.15 K
READOUT: solubility (mole fraction)

{"SMILES ENTRY": "O=P(NCc1ccccc1)(Oc1ccccc1)Oc1ccccc1", "READOUT": "solubility (mole fraction)", "READOUT NUMBER": 0.0407}

###

Settings: in acetonitrile, 338.15 K

{"SMILES ENTRY": "O=P(NCc1ccccc1)(Oc1ccccc1)Oc1ccccc1", "solubility (mole fraction)": 0.155}
